The measurements presented in this section are drawn from patent US20150218281A1.

Target: T1, full length human OX40L expressed on CHO cells (human, UniProt P23510 1-183)
T1 sequence: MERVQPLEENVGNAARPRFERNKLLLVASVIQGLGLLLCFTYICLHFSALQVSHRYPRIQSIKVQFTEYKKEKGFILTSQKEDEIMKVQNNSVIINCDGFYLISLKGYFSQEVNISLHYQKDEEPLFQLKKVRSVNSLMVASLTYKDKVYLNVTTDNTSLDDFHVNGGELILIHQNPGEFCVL
Experiment: cell-based or functional assay
Below: a set of entries, each annotated with reported IC50, IL4 production, T-cell activation assay, donor 2.
Use µM as the unit, but write only the number.

Solved cases below.
>>> readout_value("OX40L19D08 (VHH, monovalent Nanobody from E. coli; not shown: C-terminal c-myc and His6 tag) VHH: EVQLVESGGGLVQAGASLRLSCAASGRRFISNYAMGWFRQAPGQERAFVAAISRSGSITYYTDSVKGRFSISRDYAKSTVYLQMDNLKPEDTAVYYCAADGGAVRDLTTNLPDYWGRGTQVTVSS")
0.132
>>> readout_value("OX40L01E10 (VHH, monovalent Nanobody from E. coli; not shown: C-terminal c-myc and His6 tag) VHH: EVQLVESGGGLVQAGDSLRLSCAASGLTFSSFAMGWFRQAPGKEREFVAAISRSGYGTSEADSVRDRFIISRDNAKNTVTLHLSRLKPEDTAVYYCAAEHTLGRPSRSQINYLYWGQGTQVTVSS")
0.159
>>> readout_value("anti-OX40L benchmark Fab (Fab, V domains shown, papain digest of benchmark IgG; also called LC001 Fab) VH: EVQLLESGGGLVQPGGSLRLSCAASGFTFNSYAMSWVRQAPGKGLEWVSIISGSGGFTYYADSVKGRFTISRDNSRTTLYLQMNSLRAEDTAVYYCAKDRLVAPGTFDYWGQGALVTVSS VL: DIQMTQSPSSLSASVGDRVTITCRASQGISSWLAWYQQKPEKAPKSLIYAASSLQSGVPSRFSGSGSGTDFTLTISSLQPEDFATYYCQQYNSYPYTFGQGTKLEIKR")
0.131
>>> readout_value("OX40L19A07 (VHH, monovalent Nanobody from E. coli; not shown: C-terminal c-myc and His6 tag) VHH: EVQLVESGGGLVQAGGSLRLSCAASGFTLDDYAIAWFRQAPGKEREGVSRIKISNGRTTYAGSVKGRFTISSDNAKNTVYLQMNSLNAEDTAVYYCAADRSSLLFGSNWDRKARYDYWGQGTQVTVSS")
0.618
>>> readout_value("OX40L15B07 (VHH, monovalent Nanobody from E. coli; not shown: C-terminal c-myc and His6 tag) VHH: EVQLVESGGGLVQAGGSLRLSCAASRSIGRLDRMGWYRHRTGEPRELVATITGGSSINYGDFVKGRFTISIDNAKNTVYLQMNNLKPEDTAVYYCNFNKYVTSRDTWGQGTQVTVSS")
0.249

Notebook: OX40L01B11 (VHH, monovalent Nanobody from E. coli; not shown: C-terminal c-myc and His6 tag) VHH: EVQLVESGGGLVQAGGSLRLSCVASGRSFSTYIMGWFRQAPGKEREFVATISRSGITTRSADSVKGRFTISRDNAKNTVYLQMNSLKPEDTAVYYCAAGPYVEQTLGLYQTLGPWDYWGQGTQVTVSS , IC50, IL4 production, T-cell activation assay, donor 2 read as 0.188

Notebook: OX40L18E09 (VHH, monovalent Nanobody from E. coli; not shown: C-terminal c-myc and His6 tag) VHH: EVQLVESGGGLVQAGGSLRLSCAASRNILSLNTMGWYRHAPGKPRELVARISSNSKTDYADSVKGRFTISRDNAKNTVLLQMNSLKPEDTGVYYCNLNVWRTSSDYWGQGTQVTVSS , IC50, IL4 production, T-cell activation assay, donor 2 read as 0.045

Notebook: OX40L01E07 (VHH, monovalent Nanobody from E. coli; not shown: C-terminal c-myc and His6 tag) VHH: EVQLVESGGGLVQAGGSLRLSCAASGRTFSSIYAKGWFRQAPGKEREFVAAISRSGRSTSYADSVKGRFTISRDNAKNTVYLQMNSLKPEDTAVYYCAAVGGATTVTASEWDYWGLGTQVTVSS , IC50, IL4 production, T-cell activation assay, donor 2 read as 0.32
